- Test system: B. subtilis PCM 2224
- test: MIC, broth microdilution
- Format: cell-based, Bacillus subtilis
- studyConditions: B. subtilis PCM 2224, 24 h
Where a SMILES comes first, the peptide text is derived from it. [ ]: non-standard residue; d: D form. The star is where a group is joined. Palmitoyl = CCCCCCCCCCCCCCCC(=O)*; Lauroyl = CCCCCCCCCCCC(=O)*; Pentanoyl = CCCCC(=O)*; AEEA = NCCOCCOCC(=O)O; Ahx = NCCCCCC(=O)O; βAla = NCCC(=O)O
valueKind: MIC100 (µg/mL)
Just the number please, in µg/mL, no unit attached.

[[record]]
compound = "CC[C@H](C)[C@H](NC(=O)CCCCCN)C(=O)N[C@@H](CCCCN)C(=O)N[C@@H](CCCCN)C(=O)N[C@H](C(=O)N[C@@H](CC(C)C)C(=O)N[C@@H](CO)C(=O)N[C@@H](CCCCN)C(=O)N[C@H](C(=O)N[C@@H](CCCCN)C(=O)N[C@@H](CCCCN)C(=O)N[C@@H](CC(C)C)C(=O)N[C@@H](CC(C)C)C(N)=O)[C@@H](C)CC)[C@@H](C)CC [AHX-DK5] (H-[Ahx]IKKILSKIKKLL-NH2)"
unitstring = "µg/mL"
reading = 0.78

[[record]]
compound = "CCCCCCCCCCCCCCCC(=O)N[C@H](C(=O)N[C@@H](CCCCN)C(=O)N[C@@H](CCCCN)C(=O)N[C@H](C(=O)N[C@@H](CC(C)C)C(=O)N[C@@H](CO)C(=O)N[C@@H](CCCCN)C(=O)N[C@H](C(=O)N[C@@H](CCCCN)C(=O)N[C@@H](CCCCN)C(=O)N[C@@H](CC(C)C)C(=O)N[C@@H](CC(C)C)C(N)=O)[C@@H](C)CC)[C@@H](C)CC)[C@@H](C)CC [Compound C16-DK5] (Palmitoyl-IKKILSKIKKLL-NH2)"
unitstring = "µg/mL"
reading = 3.13

[[record]]
compound = "CCCCCCCCCCCCCCCC(=O)NCCC(=O)N[C@@H](Cc1c[nH]cn1)C(=O)NCCOCCOCC(=O)N[C@H](C(=O)N[C@@H](CCCCN)C(=O)N[C@@H](CCCCN)C(=O)N[C@H](C(=O)N[C@@H](CC(C)C)C(=O)N[C@@H](CO)C(=O)N[C@@H](CCCCN)C(=O)N[C@H](C(=O)N[C@@H](CCCCN)C(=O)N[C@@H](CCCCN)C(=O)N[C@@H](CC(C)C)C(=O)N[C@@H](CC(C)C)C(N)=O)[C@@H](C)CC)[C@@H](C)CC)[C@@H](C)CC [C16-CAR-PEG-DK5] ({Palmitoyl-βAla}-H[AEEA]IKKILSKIKKLL-NH2)"
unitstring = "µg/mL"
reading = 12.5

[[record]]
compound = "CCCCCCCCCCCC(=O)NCCC(=O)N[C@@H](Cc1c[nH]cn1)C(=O)NCCOCCOCC(=O)N[C@H](C(=O)N[C@@H](CCCCN)C(=O)N[C@@H](CCCCN)C(=O)N[C@H](C(=O)N[C@@H](CC(C)C)C(=O)N[C@@H](CO)C(=O)N[C@@H](CCCCN)C(=O)N[C@H](C(=O)N[C@@H](CCCCN)C(=O)N[C@@H](CCCCN)C(=O)N[C@@H](CC(C)C)C(=O)N[C@@H](CC(C)C)C(N)=O)[C@@H](C)CC)[C@@H](C)CC)[C@@H](C)CC [C12-CAR-PEG-DK5] ({Lauroyl-βAla}-H[AEEA]IKKILSKIKKLL-NH2)"
unitstring = "µg/mL"
reading = 3.13


Would you kindly look at the next entry?
Form field MIC100, entry CCCCC(=O)N[C@H](C(=O)N[C@@H](CCCCN)C(=O)N[C@@H](CCCCN)C(=O)N[C@H](C(=O)N[C@@H](CC(C)C)C(=O)N[C@@H](CO)C(=O)N[C@@H](CCCCN)C(=O)N[C@H](C(=O)N[C@@H](CCCCN)C(=O)N[C@@H](CCCCN)C(=O)N[C@@H](CC(C)C)C(=O)N[C@@H](CC(C)C)C(N)=O)[C@@H](C)CC)[C@@H](C)CC)[C@@H](C)CC [Compound C5-DK5] (Pentanoyl-IKKILSKIKKLL-NH2) : 0.78
